Test system: 485368-065-R3-J5-PDC spheroids with HUVEC/MSC, viability
assay_comment: Anticancer human tumor 485368-065-R3-J5-PDC patient-derived pancreatic carcinoma cell line growth inhibition [RAS]
condition_notes: second compound 0.00949 µM; first compound 10 µM; stronger effect = lower value
measured_attribute: viability, T/C (%)
Numeric only. Scale: %

Data point: CC(Nc1ccc2c(c1)OCCn1cc(N3C(=O)OCC3C(F)F)nc1-2)C(N)=O (stereo not drawn) + CCn1c(-c2cc(N3CCN(C)CC3)cnc2C(C)OC)c2c3cc(ccc31)-c1csc(n1)CC(NC(=O)C1CC1C)C(=O)N1CCCC(N1)C(=O)OCC(C)(C)C2 ; viability, T/C = 6.07

Data point: CC(C)NCC(C(=O)N1CCN(c2ncnc3c2C(C)CC3O)CC1)c1ccc(Cl)cc1 (stereo not drawn) + CCn1c(-c2cccnc2C(C)OC)c2c3cc(ccc31)N1CCOC(CC(NC(=O)C(C(C)C)N(C)C(=O)C3(F)CCN(C(=O)C#CC(C)(C)N(C)C)CC3)C(=O)N3CCCC(N3)C(=O)OCC(C)(C)C2)C1 ; viability, T/C = 66.1

Data point: NC1c2ccccc2OC12CCN(c1cnc3c(N4CCCc5ncccc54)n[nH]c3n1)CC2 (stereo not drawn) + CCn1c(-c2cc(N3CCN(C)CC3)cnc2C(C)OC)c2c3cc(ccc31)-c1csc(n1)CC(NC(=O)C1CC1C)C(=O)N1CCCC(N1)C(=O)OCC(C)(C)C2 ; viability, T/C = 0.85

Data point: CC(=O)OC12COC1CC(O)C1(C)C(=O)C(O)C3=C(C)C(OC(=O)C(O)C(NC(=O)OC(C)(C)C)c4ccccc4)CC(O)(C(OC(=O)c4ccccc4)C21)C3(C)C (stereo not drawn) + CCn1c(-c2cc(N3CCN(C)CC3)cnc2C(C)OC)c2c3cc(ccc31)-c1csc(n1)CC(NC(=O)C1CC1C)C(=O)N1CCCC(N1)C(=O)OCC(C)(C)C2 ; viability, T/C = 10.5

Data point: C[C@@H](NC(=O)c1ncnc(N)c1Cl)c1ncc(C(=O)Nc2cc(C(F)(F)F)c(Cl)cn2)s1 + CCn1c(-c2cccnc2C(C)OC)c2c3cc(ccc31)N1CCOC(CC(NC(=O)C(C(C)C)N(C)C(=O)C3(F)CCN(C(=O)C#CC(C)(C)N(C)C)CC3)C(=O)N3CCCC(N3)C(=O)OCC(C)(C)C2)C1 ; viability, T/C = 89

Data point: CC1(O)CCCC1n1c(=O)c(C(F)F)cc2cnc(NC3CCN(S(C)(=O)=O)CC3)nc21 (stereo not drawn) + CCn1c(-c2cccnc2C(C)OC)c2c3cc(ccc31)N1CCOC(CC(NC(=O)C(C(C)C)N(C)C(=O)C3(F)CCN(C(=O)C#CC(C)(C)N(C)C)CC3)C(=O)N3CCCC(N3)C(=O)OCC(C)(C)C2)C1 ; viability, T/C = 18

Data point: Cc1nc(N2CCC3(CC2)COC(C)C3N)c(CO)nc1Sc1ccnc(N)c1Cl (stereo not drawn) + CCn1c(-c2cccnc2C(C)OC)c2c3cc(ccc31)N1CCOC(CC(NC(=O)C(C(C)C)N(C)C(=O)C3(F)CCN(C(=O)C#CC(C)(C)N(C)C)CC3)C(=O)N3CCCC(N3)C(=O)OCC(C)(C)C2)C1 ; viability, T/C = 72.7

Data point: CC(C)NCC(C(=O)N1CCN(c2ncnc3c2C(C)CC3O)CC1)c1ccc(Cl)cc1 (stereo not drawn) + CCn1c(-c2cc(N3CCN(C)CC3)cnc2C(C)OC)c2c3cc(ccc31)-c1csc(n1)CC(NC(=O)C1CC1C)C(=O)N1CCCC(N1)C(=O)OCC(C)(C)C2 ; viability, T/C = 7.3

====

Test system: 485368-065-R3-J5-PDC spheroids with HUVEC/MSC, viability
assay_comment: Anticancer human tumor 485368-065-R3-J5-PDC cell line growth inhibition [RAS];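 further: spheroids exposed to agents for seven days before readout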
condition_notes: second compound 0.3 µM; first compound 0.1 µM; stronger effect = lower value
measured_attribute: viability, T/C (%)
Numeric only. Scale: %

CC(C)NCC(C(=O)N1CCN(c2ncnc3c2C(C)CC3O)CC1)c1ccc(Cl)cc1 (configuration not stated) + CCn1c(-c2cc(N3CCN(C)CC3)cnc2C(C)OC)c2c3cc(ccc31)-c1csc(n1)CC(NC(=O)C1CC1C)C(=O)N1CCCC(N1)C(=O)OCC(C)(C)C2; 7.69

Data point: CCN1CCN(Cc2ccc(Nc3ncc(F)c(-c4cc(F)c5nc(C)n(C(C)C)c5c4)n3)nc2)CC1 + CCn1c(-c2cc(N3CCN(C)CC3)cnc2C(C)OC)c2c3cc(ccc31)-c1csc(n1)CC(NC(=O)C1CC1C)C(=O)N1CCCC(N1)C(=O)OCC(C)(C)C2 ; viability, T/C = 9.84

====

System: 485368-065-R3-J5-PDC spheroids with HUVEC/MSC, viability
assay_comment: Anticancer human tumor 485368-065-R3-J5-PDC cell line growth inhibition [RAS];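 further: spheroids exposed to agents for seven days before readout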
condition_notes: second compound 1 µM; first compound 0.1 µM; stronger effect = lower value
measured_attribute: viability, T/C (%)
Numeric only. Scale: %

C=CC(=O)Nc1cc(Nc2nccc(-c3cn(C)c4ccccc34)n2)c(OC)cc1N(C)CCN(C)C + C#Cc1c(F)ccc2cc(O)cc(-c3ncc4c(N5CC6CCC(C5)N6)nc(OCC56CCCN5CC(F)C6)nc4c3F)c12; 97.3

Form: item CC(C)n1nc(-c2ccc3oc(N)nc3c2)c2c(N)ncnc21 + C#Cc1c(F)ccc2cc(O)cc(-c3ncc4c(N5CC6CCC(C5)N6)nc(OCC56CCCN5CC(F)C6)nc4c3F)c12 ; test system 485368-065-R3-J5-PDC spheroids with HUVEC/MSC, viability; viability, T/C: 17.8

Form: item CCN1CCN(Cc2ccc(Nc3ncc(F)c(-c4cc(F)c5nc(C)n(C(C)C)c5c4)n3)nc2)CC1 + C=CC(=O)N1CCN(c2nc(OCC3CCCN3C)nc3c(F)c(-c4nc(N)cc(C)c4C(F)(F)F)c(Cl)cc23)C(C)C1 ; test system 485368-065-R3-J5-PDC spheroids with HUVEC/MSC, viability; viability, T/C: 68

Form: item NC1c2ccccc2OC12CCN(c1cnc3c(N4CCCc5ncccc54)n[nH]c3n1)CC2 (stereo not given) + C#Cc1c(F)ccc2cc(O)cc(-c3ncc4c(N5CC6CCC(C5)N6)nc(OCC56CCCN5CC(F)C6)nc4c3F)c12 ; test system 485368-065-R3-J5-PDC spheroids with HUVEC/MSC, viability; viability, T/C: 47.4

Form: item CCN1CCN(Cc2ccc(Nc3ncc(F)c(-c4cc(F)c5nc(C)n(C(C)C)c5c4)n3)nc2)CC1 + C#Cc1c(F)ccc2cc(O)cc(-c3ncc4c(N5CC6CCC(C5)N6)nc(OCC56CCCN5CC(F)C6)nc4c3F)c12 ; test system 485368-065-R3-J5-PDC spheroids with HUVEC/MSC, viability; viability, T/C: 59.4

====

System: 485368-065-R3-J5-PDC spheroids with HUVEC/MSC, viability
assay_comment: Anticancer human tumor 485368-065-R3-J5-PDC cell line growth inhibition [RAS];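 further: spheroids exposed to agents for seven days before readout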
condition_notes: second compound 0.0316 µM; first compound 0.00316 µM; stronger effect = lower value
Text: RAS pathway inhibitors in Combinations in Complex Spheroids A high-throughput screen of multi-cell type tumor spheroids was designed to identify active combinations of RAS pathway inhibitors and targeted small molecules. Complex spheroids include a stromal component modeled by human endothelial cells (HUVEC) and fibroblasts modeled by human mesenchymal stem cells (MSCs). […] Compounds. […] If the clinical Cmax for an agent had not been determined, the highest concentration tested was 10 microM. […]
viability, T/C by entry:
Numeric only. Scale: %

Nc1ccn(C2OC(CO)C(O)C2(F)F)c(=O)n1 (stereo unspecified) + C=CC(=O)N1CCN(c2nc(OCC3CCCN3C)nc3c(F)c(-c4nc(N)cc(C)c4C(F)(F)F)c(Cl)cc23)C(C)C1; 103

Form: item Nc1ccn(C2OC(CO)C(O)C2(F)F)c(=O)n1 (stereo unspecified) + C#Cc1c(F)ccc2cc(O)cc(-c3ncc4c(N5CC6CCC(C5)N6)nc(OCC56CCCN5CC(F)C6)nc4c3F)c12 ; test system 485368-065-R3-J5-PDC spheroids with HUVEC/MSC, viability; viability, T/C: 98.4

Form: item O=C(c1ccc(F)c(F)c1Nc1ccc(I)cc1F)N1CC(O)([C@@H]2CCCCN2)C1 + C#Cc1c(F)ccc2cc(O)cc(-c3ncc4c(N5CC6CCC(C5)N6)nc(OCC56CCCN5CC(F)C6)nc4c3F)c12 ; test system 485368-065-R3-J5-PDC spheroids with HUVEC/MSC, viability; viability, T/C: 90.3

Form: item CCN1CCN(Cc2ccc(Nc3ncc(F)c(-c4cc(F)c5nc(C)n(C(C)C)c5c4)n3)nc2)CC1 + C=CC(=O)N1CCN(c2nc(OCC3CCCN3C)nc3c(F)c(-c4nc(N)cc(C)c4C(F)(F)F)c(Cl)cc23)C(C)C1 ; test system 485368-065-R3-J5-PDC spheroids with HUVEC/MSC, viability; viability, T/C: 106

Form: item O=C(c1ccc(F)c(F)c1Nc1ccc(I)cc1F)N1CC(O)([C@@H]2CCCCN2)C1 + C=CC(=O)N1CCN(c2nc(OCC3CCCN3C)nc3c(F)c(-c4nc(N)cc(C)c4C(F)(F)F)c(Cl)cc23)C(C)C1 ; test system 485368-065-R3-J5-PDC spheroids with HUVEC/MSC, viability; viability, T/C: 90.9

Form: item C=CC(=O)Nc1cc(Nc2nccc(-c3cn(C)c4ccccc34)n2)c(OC)cc1N(C)CCN(C)C + C#Cc1c(F)ccc2cc(O)cc(-c3ncc4c(N5CC6CCC(C5)N6)nc(OCC56CCCN5CC(F)C6)nc4c3F)c12 ; test system 485368-065-R3-J5-PDC spheroids with HUVEC/MSC, viability; viability, T/C: 103
